- System: TNFα-FL/Gaussia Luciferase
- Experiment: Dox Induced TNFα-FL-Gluc Assay
- Assay type: cell-based
- Conditions Used: 24 hr Dox induction; 293FRT/TO cells; read-out: 24 hr Dox Inducible TNFaFLGluc 293FRT/TO: Mean IC50
Reported Property: IC50 (nM)

Example cases with answers are listed next.
### Prompt Using the record for CC(C)n1ccc(/C=C/c2csc(NC(=O)c3cccn3Cc3ccnc(F)c3)n2)n1 , report its IC50.
### Response 9980

### Prompt Using the record for O=C(Nc1nc([C@H]2CCCN2c2ccc(OC3CN(C(=O)CO)C3)cc2)cs1)c1cccn1Cc1ccnc(F)c1 , report its IC50.
### Response 310

[A] O=C(Nc1nc([C@H]2CCCN2c2ccc(O[C@H]3CCCNC3)cc2)cs1)c1cccn1Cc1ccnc(F)c1
[B] CC(=O)N1CCC(Oc2ccc(N3CCC[C@@H]3c3csc(NC(=O)c4cccn4Cc4ccnc(F)c4)n3)cn2)CC1
### Prompt API: POST /compare with A and B ; response names the item with higher IC50. Could you answer with the label of the item you picked?
### Response A

[P] CS(=O)(=O)N1CC(Oc2ccc(N3CCC[C@@H]3c3csc(NC(=O)c4cccn4Cc4ccnc(F)c4)n3)cc2)C1
[Q] O=C(Nc1nc([C@H]2CCCN2c2ccc(OC3CCN(C(=O)C(F)(F)F)CC3)cc2)cs1)c1cccn1Cc1ccnc(F)c1
### Prompt Kindly compare P with Q and tell me which has the lower IC50 figure. Could you answer with the label of the item you picked?
### Response Q

[A] CNC(=O)N1CC(Oc2ccc(N3CCC[C@@H]3c3csc(NC(=O)c4cccn4Cc4ccnc(F)c4)n3)cc2)C1
[B] Cc1cc(Cn2cccc2C(=O)Nc2nc([C@H]3CCCN3c3ccccc3)cs2)ccn1
### Prompt Kindly compare A with B and tell me which has the lower IC50 figure. Could you answer with the label of the item you picked?
### Response A
(A: 322 nM, B: 4050 nM)

Reference for the values: patent US20230286973A1
